Test system: NCI-H226
Assay Method Text: NCI tumour cell line growth inhibition, 48 h
Activity calls are given as the source filed them. Cut-off read from the data, not from the text of the source: active = GI50 up to about 1.1 µM and inactive = higher.
Labels: YES = active, NO = inactive

Molecule | Assigned Category
CCOc1ccc(NC(=O)CC2SC(N)=NC2=O)cc1 (stereo not given) | NO
CN(/N=C/c1ccc(OCc2cccc(COc3ccc(C=O)cc3)n2)cc1)c1cnn(-c2ccc(Cl)cc2Cl)c(=O)c1Cl | NO
CC1(C)CC2=C(Sc3ccccc3N2)C(=O)C1C(=O)C(=O)Nc1cccc([N+](=O)[O-])c1 (stereo not given) | NO
N=C(N)NS(=O)(=O)c1ccc(NC(=O)c2cccc3c(O)c4ccccc4nc23)cc1 | NO
Cc1c([C@H](C)[C@@H]2NC[C@@H](C)C[C@H]2O)ccc2c1C[C@H]1[C@H]2CC=C2C[C@@H](O)CC[C@@]21C | NO
CC(=O)c1cnc2oc3ccc(O)cc3c2c1-c1ccccc1 | NO
N#Cc1ccccc1NC(=O)C(=O)c1c(O)c2ccccc2oc1=O | NO
CS(=O)(=O)N1CC(CCl)c2ccc(O)cc21 (stereo not given) | NO
COc1ccc2c(c1)[n+]([O-])c(-c1c(Cl)cccc1Cl)c(N)[n+]2[O-] | NO
O=C1CCCCC(=O)OC2(CCCCC2=O)CC1 (stereo not given) | NO
C=CCCCC1SC2=C(CC)CCCN2C1=O (stereo not given) | NO
CC(=O)OCC1OC(n2cc([N+](=O)[O-])c(=O)[nH]c2=O)C(OC(C)=O)C(OC(C)=O)C1OC(C)=O (stereo not given) | NO
O=C(OCC1CCCN2CCCCC12)c1cccnc1 (stereo not given) | NO
Cc1c[nH]c2c(O)cc3c(c12)[C@H](CCl)CN3C(=O)c1cc2cc(NC(=O)Nc3ccc4[nH]c(C(=O)N5C[C@@H](CCl)c6c5cc(O)c5[nH]cc(C)c65)cc4c3)ccc2[nH]1 | YES
NC(=O)N/N=C1/CCC(O)CC1CC(=O)O (stereo not given) | NO
C=C1c2nc3ccccc3n2C=C(c2ccc(OC)cc2)N1c1ccc(OCCN2CCCCC2)cc1 | NO
Cc1ccc(S(=O)(=O)C2=Cc3ccccc3C2(O)c2ccccc2)cc1 (stereo not given) | NO
CC1NC(=O)CC(c2ccccc2)N(N=O)C1c1ccccc1 (stereo not given) | NO
C=C1C(=O)C23C(O)CC4C5(C)CCCC4(C(O)OC5)C2C(OC(C)=O)CC1C3O (stereo not given) | NO
CN1Cc2c(nc(-c3ccccc3)c[n+]2[O-])N(C)C1 | NO
Cc1cc(C)c2c(c1)N[S@@](=O)S2 | NO
CSC1=NS(=O)(=O)c2cc(C(=O)NN(C)C(=O)c3cc4c(cc3Cl)SC(SC)=NS4(=O)=O)c(Cl)cc2S1 | NO
COc1cc([C@@H]2c3cc4c(cc3[C@@H](NC(=O)c3ccc(C(C)=O)cc3)C3COC(=O)[C@@H]32)OCO4)cc(OC)c1O (stereo not given in full) | YES
OC12COc3ccccc3C1Oc1ccccc1C2 (stereo not given) | NO
O=C1CCCc2cc3c(cc21)CC1(Cc2ccccc2C1)C3 | NO
CCOC(=O)Cn1c2ccccc2c(=O)c2cc(C)c(C)c(C#N)c21 | NO
Nc1nc(N)c(C2=CCNCC2)c(=O)[nH]1 | NO
CC1=CC(=O)/C(=C/NC(=S)c2ccncc2)C(=O)O1 | NO
NC(=O)/C=C/NC(=O)/C=N\O | NO
C[n+]1c2ccccc2c(NC(CCC(N)=O)C(=O)O)c2ccccc21 (stereo not given) | NO
CCOC(=O)C1=C(N)N(c2ccccc2)/C(=C(/C#N)c2nc3ccccc3[nH]2)S1 | NO
Cc1cc(C)nc(NC(=S)Nc2ccc(Cl)cc2)c1 | NO
CC(C)CC(=O)CC(C)[C@]1(CCCOCc2ccccc2)C(=O)N2CCC3(C[C@@]24CCC[C@H]41)OCCO3 (stereo not given in full) | NO
O=C(Nc1cccc(C(F)(F)F)c1)c1cc(-c2ccccc2)nc(S)n1 | NO
C=C1C/C(=C/C)C(=O)O[C@@H]2CCN3CC=C(COC(=O)[C@]1(C)O)[C@H]23 | NO
O=c1/c(=C/c2ccccc2[N+](=O)[O-])sc2nc3ccccc3n12 | NO
CCCCCCCCCCCCCCCCCCNc1ccn(C2OC(COP(=O)(O)OCCCCCCCCCCCCCCCC)C(O)C2O)c(=O)n1 (stereo not given) | NO
COc1cc2nc(-c3cccs3)nc(Nc3ccccc3C(=O)NN)c2cc1OC | NO
CN(C)CCCn1cnc2ncccc2c1=O | NO
COc1ccc(CCN(C)C(=O)CC(C#N)(c2ccccc2)c2ccc(OC)c(OC)c2)cc1OC (stereo not given) | NO
